Molecular target: purified Z-AAT protein from human plasma (Homo sapiens (Human), UniProt P01009, E366K)
Sequence (P01009 25-418 E366K limits assumed): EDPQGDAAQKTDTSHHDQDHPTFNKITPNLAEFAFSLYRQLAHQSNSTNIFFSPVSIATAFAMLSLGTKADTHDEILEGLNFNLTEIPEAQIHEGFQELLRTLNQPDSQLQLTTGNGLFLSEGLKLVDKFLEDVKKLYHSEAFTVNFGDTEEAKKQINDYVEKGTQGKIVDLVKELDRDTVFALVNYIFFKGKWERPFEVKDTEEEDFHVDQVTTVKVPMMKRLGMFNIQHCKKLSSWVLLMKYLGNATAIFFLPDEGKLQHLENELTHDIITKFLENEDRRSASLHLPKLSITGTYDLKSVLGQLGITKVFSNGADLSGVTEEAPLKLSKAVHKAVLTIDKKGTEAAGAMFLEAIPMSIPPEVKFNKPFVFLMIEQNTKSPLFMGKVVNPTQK
Assay: Biochemical Assay (Z-AAT Elastase Activity Assay)
Conditions: purified Z-AAT pre-incubated with compound 1 hour, then human neutrophil elastase and fluorescent substrate
# IC50 annotations

Ask: Tell me the measured IC50 of CC(C)c1c([C@H]2CC3(C[C@H](C(=O)O)C3)C2)c2cc(O)ccc2n1-c1ccc(F)c(F)c1 (some centres unmarked) [Compound 58] , please.
Reply: 2 to 5 µM

====

Target: NL20 human bronchial epithelial cells expressing human Z-AAT (Homo sapiens (Human), UniProt P01009, E366K)
Sequence (P01009 25-418 E366K limits assumed): as above
Assay: AAT Function Assay (MSD Assay NL20-SI Cell Line)
Conditions: functionally active AAT (AAT-hNE complex, MSD) in supernatant of NL20 cells expressing human Z-AAT; read-out: NL20 Functional EC50
Property Label: EC50

Consider the following illustrative entries.
- Compound: "Cc1cc(-n2c(C3CCOCC3)c(CC3(C(=O)O)CC3)c3cc(O)ccc32)ccc1F [Compound 103]"
  EC50: "> 2000 nM"
- Compound: "Cc1cc(-n2c(C(C)C)c(CC(C)(O)C(=O)O)c3cc(O)ccc32)ccc1F (stereo not drawn) [Compound 152]"
  EC50: "> 2000 nM"
- Compound: "Cc1cc(-n2c(C(C)C)c([C@H]3C[C@](C)(C(=O)O)C3)c3cc(O)ccc32)ccc1F [Compound 95]"
  EC50: "< 500 nM"
- Compound: "C[C@]1(C(=O)O)C[C@@H](c2c(C3CCOCC3)n(-c3ccccc3)c3ccc(O)cc32)C1 [Compound 52]"
  EC50: "> 2000 nM"
- Compound: "O=C(O)[C@H]1C[C@@H](c2c(C3CCOCC3)n(-c3ccc(F)c(Cl)c3)c3ccc(O)cc32)C1 [Compound 115]"
  EC50: "> 2000 nM"

Ask: Record request: EC50 value, item Cc1cc(-n2c(C(C)C)c(C3CC4(C3)CC(F)(C(=O)O)C4)c3cc(O)ccc32)ccc1F (stereo not drawn) [Compound 149]
Reply: 500 to 2000 nM

====

Biological target: purified Z-AAT protein from human plasma (Homo sapiens (Human), UniProt P01009, E366K)
Assay: Biochemical Assay (Z-AAT Elastase Activity Assay)
Settings: purified Z-AAT pre-incubated with compound 1 hour, then human neutrophil elastase and fluorescent substrate
pIC50: −log10 of the molar value.
Property Label: pIC50

- Molecule: "COC(C)(Cc1c(C(C)C)n(-c2ccc(F)c(C)c2)c2ccc(O)cc12)C(=O)O (stereo not shown)"
  pIC50: "< 4.52"
- Molecule: "CC(C)c1c([C@H]2C[C@H](C(=O)O)C2)c2cc(O)ccc2n1-c1ccc(F)c(F)c1"
  pIC50: "< 5.30"
- Molecule: "Cc1cc(-n2c(C3CCS(=O)(=O)CC3)c([C@H]3C[C@@](C(=O)O)(C(F)(F)F)C3)c3cc(O)ccc32)ccc1F"
  pIC50: "< 4.52"
- Molecule: "Cc1c(C2(C#N)CC2)c2cc(O)ccc2n1-c1ccc(F)cc1"
  pIC50: "< 5.30"

Ask: Which pIC50 reading was recorded for the molecule "N#Cc1c(C2CCOCC2)n(-c2ccccc2)c2ccc(O)cc12" ?
Reply: < 4.52

Ask: Also check Cc1cc(-n2c(C3CCOCC3)c([C@H]3CC4(C[C@H](C(=O)O)C4)C3)c3cc(O)ccc32)ccc1F (stereo partly shown) [Compound 11]
Reply: < 4.52

Ask: One more molecule: "C[C@]1(C(=O)O)C[C@@H](c2c(C3CCOCC3)n(-c3ccc(F)cc3)c3ccc(O)cc32)C1"
Reply: < 4.52
